experimental_system: MBP-MshC (Mycobacterium tuberculosis, UniProt P9WJM9)
Sequence (P9WJM9 whole entry, looked up): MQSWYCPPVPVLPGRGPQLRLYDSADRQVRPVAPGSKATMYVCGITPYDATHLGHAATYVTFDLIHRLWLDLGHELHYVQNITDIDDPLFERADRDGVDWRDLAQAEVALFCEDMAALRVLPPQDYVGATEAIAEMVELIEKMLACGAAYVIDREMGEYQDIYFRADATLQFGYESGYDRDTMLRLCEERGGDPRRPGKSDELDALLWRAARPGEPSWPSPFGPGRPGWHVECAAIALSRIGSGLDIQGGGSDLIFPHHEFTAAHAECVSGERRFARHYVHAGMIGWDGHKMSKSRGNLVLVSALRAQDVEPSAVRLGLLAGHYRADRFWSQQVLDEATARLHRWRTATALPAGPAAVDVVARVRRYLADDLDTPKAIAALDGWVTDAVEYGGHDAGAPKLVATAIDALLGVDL
test_description: Confirmatory assay: CGI production by fluorescence-detected HPLC
Type: biochemical
recorded_conditions: quantitative CGI-HPLC confirmatory assay
readout: IC50

Specify measured IC50 for C[n+]1ccc(Nc2ccc(NC(=O)c3ccc(Nc4cc[n+](C)c5ccc([N+](=O)[O-])cc45)cc3[N+](=O)[O-])cc2)cc1 . ~500 µM

* * *

experimental_system: MBP-MshC (Mycobacterium tuberculosis)
readout: Kd (µM)
Answer format: numeric, µM implied, no suffix.

Specify measured Kd for Cc1cc(N)c2ccccc2[n+]1CCCCCCCCCC[n+]1c(C)cc(N)c2ccccc21 [compound 1, dequalinium chloride] . 7.1

From: paper PMC2796824
